- assay: Standard protocol for determination of kcat and KM (continuous spectrophotometric assay, Acetyl CoA hydrolysis at 235 nm)
- Assay type: biochemical
- assayConditions: purified protein; about 23° C.; pH 6.8; 0.2 mM acetyl CoA; glyphosate 0.125 to 10 mM
- Procedure: KM was calculated from the initial reaction rates obtained from concentrations of glyphosate ranging from 0.125 to 10 mM, using the Lineweaver-Burke transformation of the Michaelis-Menten equation. kcat/KM was determined by dividing the value determined for kcat by the value determined for KM. Using this methodology, kinetic parameters for a number of GAT polypeptides exemplified herein were determined. […]
Each entry below carries its recorded Km.

- molecule: "SEQ ID NO: 329: GAT polypeptide (protein, 15_12A8, GAT polypeptide) MIEVKPINAEDTYEIRHRILRPNQPLEACKYETDLLGGTFHLGGYYRGKLISIASFHQAEHPELEGQKQYQLRGMATLEGYREQKAGSTLIRHAEALLRKKGADLLWCNARTSASGYYKKLGFSEQGEVYDIPPTGPHILMYKKLT"
  Km / µM: 1600
- molecule: "SEQ ID NO: 426: GAT polypeptide (protein, 9_18H2, GAT polypeptide) MIEVKPINAEDTYEIRHRILRPNQPLEACMYETDLLGGTFHLGGYYRGKLISIASFHQAEHPELVGQKQYQLRGMATLEGYREQKAGSTLIRHAEELLRKKGADLLWCNARTSASGYYKKLGFSEQGEVYDIPPVGPHILMYKKLT"
  Km / µM: 1100
- molecule: "SEQ ID NO: 290: GAT polypeptide (protein, 12_6A10, GAT polypeptide) MIEVKPINAEDTYEIRHRILRPNQPLEACKYETDLLGGTFHLGGYYRGKLVSIASFHQAEHPELEGQKQYQLRGMATLEGYREQKAGSTLIRHAEELLRKKGADLLWCNARTSASGYYKKLGFSEQGGVYDIPPVGPHILMYKKLT"
  Km / µM: 1100
